assay: Plasma pharmacokinetics (LC-MS/MS); assay type: in vivo, human; details: human, plasma, oral, 1000 mg, C1D15, 1000 mg QD, n=2; read-out: AUC0-t, Geo-mean
quantity: AUC(0-t) (ng·h/mL)
Form entry: value (ng·h/mL) — number only.

Q: # input compound: CC1(N)CCN(c2cccnc2NC(=O)c2nc(-c3ncccc3C(F)(F)F)cnc2N)CC1 ; wanted: its AUC(0-t)
Result: 48000

====

assay: Plasma pharmacokinetics (LC-MS/MS); type: in vivo, human; conditions: human, plasma, oral, 200 mg, C1D1, 200 mg QD, n=3; read-out: AUCinf, Median (Min, max)
quantity: AUC(0-inf) (ng·h/mL)
Form entry: value (ng·h/mL) — number only.

Q: # input molecule: CC1(N)CCN(c2cccnc2NC(=O)c2nc(-c3ncccc3C(F)(F)F)cnc2N)CC1 [LXS196] ; wanted: its AUC(0-inf)
Result: 22600

====

experiment: Plasma pharmacokinetics (LC-MS/MS); assay type: in vivo, human; details: human, plasma, oral, 500 mg, C1D1, 500 mg QD, n=10; read-out: AUC0-t, Median (Min, max)
quantity: AUC(0-t) (ng·h/mL)
Form entry: value (ng·h/mL) — number only.

Q: # input compound: CC1(N)CCN(c2cccnc2NC(=O)c2nc(-c3ncccc3C(F)(F)F)cnc2N)CC1 [LXS196] ; wanted: its AUC(0-t)
Result: 50700

====

assay: Plasma pharmacokinetics (LC-MS/MS); assay type: in vivo, human; settings: human, plasma, oral, 400 mg, C1D1, 400 mg BID, n=5; read-out: AUC0-t, Median (Min, max)
quantity: AUC(0-t)
Respond with a number, then the unit of measure.

Q: # input compound: CC1(N)CCN(c2cccnc2NC(=O)c2nc(-c3ncccc3C(F)(F)F)cnc2N)CC1 [LXS196] ; wanted: its AUC(0-t)
Result: 18200 ng·h/mL

====

assay: Plasma pharmacokinetics (LC-MS/MS); format: in vivo, human; settings: human, plasma, oral, 1000 mg, C1D15, 1000 mg QD, n=2; read-out: AUC0-t, Mean (SD)
quantity: AUC(0-t) (ng·h/mL)
Form entry: value (ng·h/mL) — number only.

Q: # input compound: CC1(N)CCN(c2cccnc2NC(=O)c2nc(-c3ncccc3C(F)(F)F)cnc2N)CC1 ; wanted: its AUC(0-t)
Result: 48300

====

experiment: Plasma pharmacokinetics (LC-MS/MS); assay type: in vivo, human; conditions: human, plasma, oral, 300 mg, C1D1, 300 mg BID, n=17; read-out: Cmax, Median (Min, max)
quantity: Cmax (ng/mL)
Form entry: value (ng/mL) — number only.

Q: # input compound: CC1(N)CCN(c2cccnc2NC(=O)c2nc(-c3ncccc3C(F)(F)F)cnc2N)CC1 ; wanted: its Cmax
Result: 4210

====

test: Plasma pharmacokinetics (LC-MS/MS); assay type: in vivo, human; conditions: human, plasma, oral, 300 mg, C1D1, 300 mg QD, n=15; read-out: T1/2, Geo-mean (converted)
quantity: half-life

Q: # input compound: CC1(N)CCN(c2cccnc2NC(=O)c2nc(-c3ncccc3C(F)(F)F)cnc2N)CC1 ; wanted: its half-life
Result: 10.7 h

====

assay: Plasma pharmacokinetics (LC-MS/MS); type: in vivo, human; settings: human, plasma, oral, 300 mg, C1D1, 300 mg BID, n=17; read-out: AUC0-t, Mean (SD)
quantity: AUC(0-t) (ng·h/mL)
Form entry: value (ng·h/mL) — number only.

Q: # input molecule: CC1(N)CCN(c2cccnc2NC(=O)c2nc(-c3ncccc3C(F)(F)F)cnc2N)CC1 [LXS196] ; wanted: its AUC(0-t)
Result: 20500

====

assay: Plasma pharmacokinetics (LC-MS/MS); type: in vivo, human; conditions: human, plasma, oral, across different doses; read-out: Terminal T1/2 (converted)
quantity: half-life

Q: # input molecule: CC1(N)CCN(c2cccnc2NC(=O)c2nc(-c3ncccc3C(F)(F)F)cnc2N)CC1 ; wanted: its half-life
Result: ~11 h

====

assay: Plasma pharmacokinetics (LC-MS/MS); format: in vivo, human; details: human, plasma, oral, 800 mg, C1D1, 800 mg QD, n=1; read-out: Tmax, Median (Min, max)
quantity: Tmax (min)
Form entry: value (min) — number only.

Q: # input compound: CC1(N)CCN(c2cccnc2NC(=O)c2nc(-c3ncccc3C(F)(F)F)cnc2N)CC1 [LXS196] ; wanted: its Tmax
Result: 29

====

assay: Plasma pharmacokinetics (LC-MS/MS); assay type: in vivo, human; details: human, plasma, oral, 200 mg, C1D1, 200 mg BID, n=6; read-out: AUCinf, Median (Min, max)
quantity: AUC(0-inf) (ng·h/mL)
Form entry: value (ng·h/mL) — number only.

Q: # input compound: CC1(N)CCN(c2cccnc2NC(=O)c2nc(-c3ncccc3C(F)(F)F)cnc2N)CC1 [LXS196] ; wanted: its AUC(0-inf)
Result: 21600

====

assay: Plasma pharmacokinetics (LC-MS/MS); assay type: in vivo, human; settings: human, plasma, oral, 1000 mg, C1D1, 1000 mg QD, n=4; read-out: AUC0-t, Geo-mean
quantity: AUC(0-t) (ng·h/mL)
Form entry: value (ng·h/mL) — number only.

Q: # input compound: CC1(N)CCN(c2cccnc2NC(=O)c2nc(-c3ncccc3C(F)(F)F)cnc2N)CC1 ; wanted: its AUC(0-t)
Result: 69700

====

Assay: Plasma pharmacokinetics (LC-MS/MS)
Type: in vivo, human
Details: human, plasma, oral, 200 mg, C1D1, 200 mg BID, n=6; read-out: AUC0-t, Median (Min, max)
Protocol: In the dose escalation part of the study, PK samples were collected at various pre- and post-dose time points on C1D1, D2, D3, D15 and D16. Drug concentrations were assessed using a validated liquid chromatography-tandem mass spectrometry assay.
quantity: AUC(0-t) (ng·h/mL)
Form entry: value (ng·h/mL) — number only.

Q: # input compound: CC1(N)CCN(c2cccnc2NC(=O)c2nc(-c3ncccc3C(F)(F)F)cnc2N)CC1 [LXS196] ; wanted: its AUC(0-t)
Result: 13300

====

assay: Plasma pharmacokinetics (LC-MS/MS); type: in vivo, human; settings: human, plasma, oral, 300 mg, C1D1, 300 mg BID, n=17; read-out: Cmax, Geo-mean
quantity: Cmax (ng/mL)
Form entry: value (ng/mL) — number only.

Q: # input compound: CC1(N)CCN(c2cccnc2NC(=O)c2nc(-c3ncccc3C(F)(F)F)cnc2N)CC1 ; wanted: its Cmax
Result: 3850

====

experiment: Plasma pharmacokinetics (LC-MS/MS); assay type: in vivo, human; conditions: human, plasma, oral, 400 mg, C1D15, 400 mg BID, n=4; read-out: Cmax, Mean (SD)
quantity: Cmax (ng/mL)
Form entry: value (ng/mL) — number only.

Q: # input compound: CC1(N)CCN(c2cccnc2NC(=O)c2nc(-c3ncccc3C(F)(F)F)cnc2N)CC1 [LXS196] ; wanted: its Cmax
Result: 2100

====

experiment: Plasma pharmacokinetics (LC-MS/MS); assay type: in vivo, human; settings: human, plasma, oral, 1000 mg, C1D15, 1000 mg QD, n=2; read-out: Cmax, Median (Min, max)
quantity: Cmax (ng/mL)
Form entry: value (ng/mL) — number only.

Q: # input compound: CC1(N)CCN(c2cccnc2NC(=O)c2nc(-c3ncccc3C(F)(F)F)cnc2N)CC1 [LXS196] ; wanted: its Cmax
Result: 5110

====

assay: Plasma pharmacokinetics (LC-MS/MS); format: in vivo, human; details: human, plasma, oral, 400 mg, C1D1, 400 mg BID, n=5; read-out: Tmax, Median (Min, max)
quantity: Tmax
Respond with a number, then the unit of measure.

Q: # input molecule: CC1(N)CCN(c2cccnc2NC(=O)c2nc(-c3ncccc3C(F)(F)F)cnc2N)CC1 ; wanted: its Tmax
Result: 1.03 h

====

assay: Plasma pharmacokinetics (LC-MS/MS); type: in vivo, human; conditions: human, plasma, oral, 400 mg, C1D1, 400 mg BID, n=5; read-out: AUCinf, Median (Min, max)
quantity: AUC(0-inf) (ng·h/mL)
Form entry: value (ng·h/mL) — number only.

Q: # input compound: CC1(N)CCN(c2cccnc2NC(=O)c2nc(-c3ncccc3C(F)(F)F)cnc2N)CC1 ; wanted: its AUC(0-inf)
Result: 31700

====

assay: Plasma pharmacokinetics (LC-MS/MS); type: in vivo, human; details: human, plasma, oral, 1000 mg, C1D1, 1000 mg QD, n=3; read-out: T1/2, Median (Min, max) (converted)
quantity: half-life (h)
Form entry: value (h) — number only.

Q: # input compound: CC1(N)CCN(c2cccnc2NC(=O)c2nc(-c3ncccc3C(F)(F)F)cnc2N)CC1 [LXS196] ; wanted: its half-life
Result: 9.32

====

test: Plasma pharmacokinetics (LC-MS/MS); assay type: in vivo, human; settings: human, plasma, oral, 1000 mg, C1D1, 1000 mg QD, n=3; read-out: T1/2, Mean (SD) (converted)
quantity: half-life (min)
Form entry: value (min) — number only.

Q: # input compound: CC1(N)CCN(c2cccnc2NC(=O)c2nc(-c3ncccc3C(F)(F)F)cnc2N)CC1 [LXS196] ; wanted: its half-life
Result: 600

Data provenance is paper PMC10006169.
